target or system: DGI-2 (Homo sapiens, UniProt Q15004)
Construct: encompassed the entire DGI-2 open reading frame (ORF); His-tag of vector pIVEX2.3-MCS (inferred from the vector and from the reverse primer lacking a stop codon); made in house; host or cells: cell-free in vitro translation (Rapid Translation System RTS, Roche; E. coli lysate)
Sequence (Q15004 1-111): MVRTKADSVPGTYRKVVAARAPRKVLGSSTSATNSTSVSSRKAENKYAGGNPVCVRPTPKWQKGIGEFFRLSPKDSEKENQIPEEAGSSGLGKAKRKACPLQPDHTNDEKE
protocol notes: ELISA analysis of phage on DGI-2 polypeptide (specific binding)
measurement context: ratio of specific binding to non-specific binding
Measured DGI-2/LDH (OD) by item
Answer using only a numeral; do not append any unit.

Answered cases to consult:
>>> numeric_readout("QMSRVAFSPGESWRRWVEGV (DGI-2-20R-3-A2; listed as Escherichia coli)")
7.5
>>> numeric_readout("FSSTGILLRSGRATAVGHVT (DGI-2-20F-3-A6; listed as Escherichia coli)")
1.4
>>> numeric_readout("MAVLPAARDFGGVVQGGVSG (DGI-2-20F-3-C2; listed as Escherichia coli)")
1.3

Pending sequence:
Using the record for GSTRLRVTVRFCSETGTPGC (DGI-2-20F-PP-G6; listed as Escherichia coli) , report its DGI-2/LDH (OD).
2.5

----------
Test system: lactate dehydrogenase (LDH)
protocol notes: ELISA analysis of phage on LDH (irrelevant, non-specific target)
Type: binding
measurement context: peptide binding to LDH polypeptide (non-specific binding); phage ELISA units read at 405 nm
Readings of LDH (OD) for the listed sequences
The response must be a number in OD with no trailing unit.

# example entries with known answers
>>> numeric_readout("EVFVSVWVFRFRVMPVTPGGT (DGI-2-20F-PP-E6; listed as Escherichia coli)")
1.2
>>> numeric_readout("DRHRAFVAEGLDGFRHSTGV (DGI-2-20F-PP-D4; listed as Escherichia coli)")
1.1
>>> numeric_readout("SYRNFAMQSSLQVRRGSVVEDGTCWWEGVRCYSG (DGI-2-40F-4-F6; listed as Escherichia coli)")
1.0
>>> numeric_readout("LWLPCGLLVRPAQFYFYFSPLRHFLSSSVGSLSFPLSLLV (DGI-2-40F-3-B4; listed as Escherichia coli)")
0.8
>>> numeric_readout("DGRGWGAMWMRWAEGLGADI (DGI-2-20R-4-G114; listed as Escherichia coli)")
1.2

Using the record for RNWLDKDCVWMGDCGARAGE (DGI-2-20F-4-E3; listed as Escherichia coli) , report its LDH (OD).
0.9

Would you kindly share the measured LDH (OD) for PVYRVAMCRISVGCSAGAWF (DGI-2-20F-PP-C12; listed as Escherichia coli) ?
0.9

Which measured LDH (OD) value corresponds to HSGNRQSGSRRTHLLNIFCSSDTFVFPGWSAYLSRVCPGD (DGI-2-40F-3-B122; listed as Escherichia coli) ?
0.8

----------
System: lactate dehydrogenase (LDH)
protocol notes: ELISA analysis of phage on LDH (irrelevant, non-specific target)
Format: binding
measurement context: peptide binding to LDH polypeptide (non-specific binding); phage ELISA units read at 405 nm
assay endpoint: LDH (OD)

Take a look at these entries with their results.
>>> result("RMYNCHYIERLYDWHAGRJLLQDPA (RMYNCHYIERLYDWHAGRILLQDPA; not fully specified; non-natural residue J; DGI-2-20C-4-E926; listed as Escherichia coli)")
"1.0 OD"
>>> result("GWGCSVPGILCVGGHRQGGG (DGI-2-20R-3-B11; listed as Escherichia coli)")
"1.0 OD"
>>> result("RSRSSSGASGSMLRVQNHMVLGSWMVRQPMGSMTPFHGHG (DGI-2-40F-3-B5; listed as Escherichia coli)")
"0.9 OD"
>>> result("SLFERSARSRYHGSPDCNGS (DGI-2-20F-PP-A3; listed as Escherichia coli)")
"1.2 OD"
>>> result("LGRTFVWGTCLHLSVSRFGH (DGI-2-20F-PP-C3; listed as Escherichia coli)")
"1.0 OD"

Can you look up the measured LDH (OD) of FGRDGDGIQRRQGGFSWVGDR (DGI-2-20F-PP-E2; listed as Escherichia coli) for me?
0.7 OD

Which LDH (OD) value is on record for LQIVRPAGMTKMPGQVGYYIG (LQIVRPAGWKMPGQVGYYIG; DGI-2-20R-3-A9; listed as Escherichia coli) ?
1.0 OD

----------
target or system: DGI-2 (Homo sapiens)
Construct: encompassed the entire DGI-2 open reading frame (ORF); His-tag of vector pIVEX2.3-MCS (inferred from the vector and from the reverse primer lacking a stop codon); made in house; host or cells: cell-free in vitro translation (Rapid Translation System RTS, Roche; E. coli lysate)
Sequence (Q15004 1-111): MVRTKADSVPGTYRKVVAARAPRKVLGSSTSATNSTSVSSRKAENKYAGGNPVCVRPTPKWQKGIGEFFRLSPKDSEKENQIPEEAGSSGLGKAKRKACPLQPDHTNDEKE
protocol notes: ELISA analysis of phage on DGI-2 polypeptide (specific binding)
measurement context: binding to DGI-2 polypeptide (specific binding); phage ELISA units read at 405 nm
Protocol: To verify that the selected target binders bound to DGI-2, Elisa assays were performed with recombinant DGI-2. DGI-2 was subcloned and expressed using conventional methods as described below. Protein yields were satisfactory, but most of protein was found in inclusion bodies. […] For analysis of individual target binders, colonies were picked and phage prepared as described above using helper phage, M13KO7. […] Plates were analyzed at 405 nm. […]
Label scheme for DGI-2 (OD): lower than 1 OD is criterion not met, 1 OD and above is criterion met.

Answered cases to consult:
>>> label_value("S#ARSLMTGVVAVCIVWRGP (SARSLMTGVVAVCIVWRGP; DGI-2-20F-PP-E8; listed as Escherichia coli)")
"criterion met"
>>> label_value("VQFAMTLSSRLWQHARHPLTDDAPPTVSFGTRRETLAGKA (DGI-2-40F-3-D3; listed as Escherichia coli)")
"criterion not met"

Decide: is the reported value of DGI-2 (OD) for WAASCFWGHVALGCGRNGQG (DGI-2-20R-3-A11; listed as Escherichia coli) equal to or greater than 1 OD?
criterion met

Is DGI-2 (OD) at least 1 OD? Consider TFTRDVAGPAVSFVRLHSWN (DGI-2-20F-PP-A9; listed as Escherichia coli)
criterion met

Given the entry RRTSADTDQLSRWEGAQAFSSLRSALSERLDSLRPGLPPS (DGI-2-40F-3-D9; listed as Escherichia coli) , answer whether its DGI-2 (OD) meets or surpasses 1 OD.
criterion met

Decide: DGI-2 (OD) of TANGHRYGGCGLWCKWMSGM (DGI-2-20R-4-E2; listed as Escherichia coli) >= 1 OD?
criterion met

Hello, I need to know if QSNVWVLVGVIMQGVWYQRQHYCVYVMLLSDQVSVLLAVA (DGI-2-40F-3-B6; listed as Escherichia coli) has measured DGI-2 (OD) not below 1 OD. Thanks!
criterion not met

Does DGI-2 (OD) meet or surpass 1 OD for LFRFSGTGMASLPCVGWHLV (DGI-2-20F-PP-B6; listed as Escherichia coli) ?
criterion met

Test whether the substance WRARSSGYLFALTPNFGVPHIPSSALRRMH.GLMARDLRPV [DGI-2-40F-3-C10] records DGI-2 (OD) of 1 OD or higher.
criterion met

Hello, I need to know if RDHRYVGWGRATFRHDQSVW (DGI-2-20F-PP-H1; listed as Escherichia coli) has measured DGI-2 (OD) not below 1 OD. Thanks!
criterion met

Given the entry GNKCFPPHDLFWDPCDQLQS (DGI-2-20R-4-F6; listed as Escherichia coli) , answer whether its DGI-2 (OD) meets or surpasses 1 OD.
criterion met

Is DGI-2 (OD) at least 1 OD? Consider VLQRSLWKDWVDGVMHGGGSRGV (DGI-2-20R-3-A7; listed as Escherichia coli)
criterion met

State whether the measured DGI-2 (OD) reaches 1 OD, counting equality as reaching it, for LSVFRPGQFPHVGARGVSRT (DGI-2-20R-4-G32; listed as Escherichia coli)
criterion met

----------
target or system: DGI-2 (Homo sapiens)
Construct: encompassed the entire DGI-2 open reading frame (ORF); His-tag of vector pIVEX2.3-MCS (inferred from the vector and from the reverse primer lacking a stop codon); made in house; host or cells: cell-free in vitro translation (Rapid Translation System RTS, Roche; E. coli lysate)
Sequence (Q15004 1-111): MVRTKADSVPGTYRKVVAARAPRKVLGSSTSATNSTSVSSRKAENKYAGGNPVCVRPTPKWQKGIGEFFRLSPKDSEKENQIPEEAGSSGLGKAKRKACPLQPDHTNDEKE
protocol notes: ELISA analysis of phage on DGI-2 polypeptide (specific binding)
measurement context: binding to DGI-2 polypeptide (specific binding); phage ELISA units read at 405 nm
Mark True only for DGI-2 (OD) values smaller than 3 OD; exact matches and larger values are False.

// below: answered substances
>>> label_value("VRAVYSRDAYNEVGRWMRVGI (DGI-2-20F-PP-D9; listed as Escherichia coli)")
"True"
>>> label_value("RFWSVSYQGGRVMCREWGYCLPI (DGI-2-40F-3-C92; listed as Escherichia coli)")
"True"
>>> label_value("CRNFGVIWGAGWVSPGCEDJ (CRNFGVIWGAGWVSPGCEDI; not fully specified; non-natural residue J; DGI-2-20F-3-A1; listed as Escherichia coli) [DGI-2-20E-3-A1]")
"True"
>>> label_value("RKGWGVFCIPGLRFCDWSDP (DGI-2-20R-3-B4; listed as Escherichia coli)")
"False"
>>> label_value("RRFVRCSVPVALRSAVPVSV (DGI-2-20F-PP-A10; listed as Escherichia coli)")
"True"
>>> label_value("DVGAVVRSGHCASRPGE*QVR (DVGAVVRSGHCASRPGEQVR; DGI-2-20F-PP-H9; listed as Escherichia coli)")
"True"

Moving on to the next substance.
# strict comparison: is reported DGI-2 (OD) < 3 OD? input = VWAAWVEGSLLSPRQEPVRD (DGI-2-20R-4-G4; listed as Escherichia coli)
False
